Ref: ChEMBL document CHEMBL1157539

System: Plasmodium falciparum
EXPERIMENT NOTES: GSK_TCMDC: Inhibition of Plasmodium falciparum 3D7 in whole red blood cells, using parasite LDH activity as an index of growth. Test compounds present at 2uM
Type: functional
MEASUREMENT KIND: Inhibition (%)

{"COMPOUND": "CCN(CC)CCN(CCCc1ccc(-c2ccc(C(F)(F)F)cc2)cc1)C(=O)Cn1c(CCc2cccc(F)c2F)nc(=O)c2ccccc21.O=C(O)C(O)C(O)C(=O)O", "TGT": "Plasmodium falciparum", "READOUT UNITS": "%", "VAL": 100}
{"COMPOUND": "CN(CCCCCN1CCC(NC(=O)Nc2ccc(Oc3ccccc3)cc2)C1)C(=O)/C=C/c1ccc(Cl)c(Cl)c1 (stereo not given)", "TGT": "Plasmodium falciparum", "READOUT UNITS": "%", "VAL": 98}
{"COMPOUND": "O=S(=O)(Nc1cccc(CCN2CCC(N3CCCCC3)CC2)c1)c1cccc(C(F)(F)F)c1", "TGT": "Plasmodium falciparum", "READOUT UNITS": "%", "VAL": 100}
{"COMPOUND": "COc1ccc(CN2CCC(N3CCc4cc(NC(=O)c5cc(C)on5)ccc43)C2)cc1Cl (stereo not given)", "TGT": "Plasmodium falciparum", "READOUT UNITS": "%", "VAL": 94}
{"COMPOUND": "Cc1cccc(CN2CCCN(Cc3ccc(C(=O)Nc4ccc(Cl)cc4)cc3)CC2)c1.O=C(O)C(F)(F)F", "TGT": "Plasmodium falciparum", "READOUT UNITS": "%", "VAL": 92}
{"COMPOUND": "Cc1cc(N[C@@H](CC(C)C)C(=O)NCCc2ccccc2)nc(NCC2CCCCC2)n1.O=C(O)C(F)(F)F", "TGT": "Plasmodium falciparum", "READOUT UNITS": "%", "VAL": 97}
{"COMPOUND": "Cc1cccc(NC(=O)c2ccc(C(=O)NC3CCN(CC4CCCCC4)CC3)cc2)c1.O=C(O)C(F)(F)F", "TGT": "Plasmodium falciparum", "READOUT UNITS": "%", "VAL": 95}
{"COMPOUND": "COc1ccc(CCNC(C)Cc2ccc(C(=O)Nc3ccc(CC(C)NCCc4cccc(Cl)c4)cc3)cc2)cc1 (stereo not given)", "TGT": "Plasmodium falciparum", "READOUT UNITS": "%", "VAL": 100}
{"COMPOUND": "O=C(NCCN1CCC(c2ccncc2)CC1)c1ccc(Nc2nccc(Nc3ccc(Oc4ccccc4)cc3)n2)cc1", "TGT": "Plasmodium falciparum", "READOUT UNITS": "%", "VAL": 100}
{"COMPOUND": "CN1CCN(c2ccc(Nc3nccc(-c4c(-c5cccc(NC(=O)c6c(F)cccc6F)c5)nn5ccccc45)n3)cc2)CC1", "TGT": "Plasmodium falciparum", "READOUT UNITS": "%", "VAL": 98}
{"COMPOUND": "CN(C)CCCN(C)c1cccc2c1nc(-c1cccnc1)n2CCNCc1ccccc1.O=C(O)C(F)(F)F", "TGT": "Plasmodium falciparum", "READOUT UNITS": "%", "VAL": 89}
{"COMPOUND": "OC(CNc1ccnc(Nc2cccc(OCCCN3CCOCC3)c2)n1)c1ccccc1 (stereo not given)", "TGT": "Plasmodium falciparum", "READOUT UNITS": "%", "VAL": 97}
{"COMPOUND": "O=C(CCCCCNC(=O)c1ccc(O)c(-c2ccc(Cl)c(Cl)c2)c1)NCCN1CCCCC1", "TGT": "Plasmodium falciparum", "READOUT UNITS": "%", "VAL": 93}
{"COMPOUND": "O=C(Nc1cccc(-c2ccc(-c3nc4cc(C(F)(F)F)ccc4[nH]3)cc2)c1)c1c[nH]cn1", "TGT": "Plasmodium falciparum", "READOUT UNITS": "%", "VAL": 91}
{"COMPOUND": "Cc1cccc(CNc2nc(C)cc(N[C@@H](CC(C)C)C(=O)NCCOc3ccccc3)n2)c1.O=C(O)C(F)(F)F", "TGT": "Plasmodium falciparum", "READOUT UNITS": "%", "VAL": 93}
{"COMPOUND": "Cc1ccc(Cc2cccc3nc(N)nc(N)c23)cc1", "TGT": "Plasmodium falciparum", "READOUT UNITS": "%", "VAL": 92}
{"COMPOUND": "Cc1cccc2nc(-c3cccc(-c4cccc(NC(=O)c5cnccc5C(F)(F)F)c4)c3)[nH]c12", "TGT": "Plasmodium falciparum", "READOUT UNITS": "%", "VAL": 98}
{"COMPOUND": "Cc1cccc(Nc2nc(N[C@@H]3CCCNC3)nc3cc[nH]c(=O)c23)c1.O=C(O)C(F)(F)F", "TGT": "Plasmodium falciparum", "READOUT UNITS": "%", "VAL": 99}
{"COMPOUND": "CCc1cn(CCS(C)(=O)=O)c2ccc(C(=O)N[C@@H](Cc3ccccc3)[C@H](O)CNC(C)(C)CCCC(C)C)cc12.O=CO", "TGT": "Plasmodium falciparum", "READOUT UNITS": "%", "VAL": 87}
{"COMPOUND": "CCOc1ccc(-c2nonc2NC(=O)c2ccccc2F)cc1OCC", "TGT": "Plasmodium falciparum", "READOUT UNITS": "%", "VAL": 90}
{"COMPOUND": "COc1ccc2nccc([C@@H](O)CN3CCC(NCc4cc5c(Cl)cccc5[nH]4)CC3)c2c1.O=C(O)C(=O)O", "TGT": "Plasmodium falciparum", "READOUT UNITS": "%", "VAL": 100}
{"COMPOUND": "O=C(Nc1cccc(N2CCC(NCCCn3ccnc3)CC2)c1)c1cccc(C(F)(F)F)c1", "TGT": "Plasmodium falciparum", "READOUT UNITS": "%", "VAL": 100}
{"COMPOUND": "Cl.N=C(N)NN=Cc1ccc2c(c1)Cc1ccccc1-2", "TGT": "Plasmodium falciparum", "READOUT UNITS": "%", "VAL": 100}
{"COMPOUND": "CC(=NO)C1=C(O)C(c2ccccc2)N(c2ccccc2)C1=O (stereo not given)", "TGT": "Plasmodium falciparum", "READOUT UNITS": "%", "VAL": 99}
{"COMPOUND": "COc1cccc2cc(C(=O)N[C@@H](CC(C)C)C(=O)N[C@H](/C=N/N(C)C(=O)OC(C)(C)C)CC(=O)OC(C)(C)C)oc12", "TGT": "Plasmodium falciparum", "READOUT UNITS": "%", "VAL": 87}
{"COMPOUND": "O=C(Nc1ccc(OC2CCN(Cc3ccc(F)cc3)CC2)c(Cl)c1)c1ccco1.O=C(O)C(F)(F)F", "TGT": "Plasmodium falciparum", "READOUT UNITS": "%", "VAL": 95}
{"COMPOUND": "O=C(O)C(F)(F)F.OCC1CCN(Cc2ccc(-c3cccc(-c4nc5cc(C(F)(F)F)ccc5[nH]4)c3)cc2)CC1", "TGT": "Plasmodium falciparum", "READOUT UNITS": "%", "VAL": 99}
{"COMPOUND": "Cc1cc(C(=O)Nc2ccc3c(c2)CCN3C2CCN(Cc3csc4ccccc34)C2)no1 (stereo not given)", "TGT": "Plasmodium falciparum", "READOUT UNITS": "%", "VAL": 96}
{"COMPOUND": "O=C(NCc1ccc(C(=O)NC2CCCCC2)cc1)c1ccc(O)c(-c2ccc(Cl)c(Cl)c2)c1", "TGT": "Plasmodium falciparum", "READOUT UNITS": "%", "VAL": 93}
{"COMPOUND": "O=C(NCCc1ccccc1)[C@H](Cc1ccccc1)Nc1ccnc(NCC2CCCCC2)n1.O=C(O)C(F)(F)F", "TGT": "Plasmodium falciparum", "READOUT UNITS": "%", "VAL": 86}
{"COMPOUND": "O=C(/C=C/c1ccc(Cl)c(Cl)c1)NCCCCN1CCCN(C(=O)Nc2cc(Cl)cc(Cl)c2)CC1", "TGT": "Plasmodium falciparum", "READOUT UNITS": "%", "VAL": 97}
{"COMPOUND": "Cc1cccc(Cn2nc(-c3ccccc3)c(N3CCCCC3)cc2=O)c1", "TGT": "Plasmodium falciparum", "READOUT UNITS": "%", "VAL": 98}
{"COMPOUND": "Cl.O=C(Nc1ccc2c(c1)CCN(C1CCC1)CC2)c1ccc(-n2ccnc2)cn1", "TGT": "Plasmodium falciparum", "READOUT UNITS": "%", "VAL": 92}
{"COMPOUND": "COc1cc2c(cc1OC)CN(c1cc(N)c3cc(OC)c(OC)cc3n1)CC2.CS(=O)(=O)O", "TGT": "Plasmodium falciparum", "READOUT UNITS": "%", "VAL": 100}
{"COMPOUND": "COc1ccc(CCC(C)N2CC(N)C(c3cn(C)c4cnccc34)C2)cc1.Cl (stereo not given)", "TGT": "Plasmodium falciparum", "READOUT UNITS": "%", "VAL": 98}
